Every entry's value here was drawn from the supplement of paper PMC7877785.

# MEASUREMENT PROTOCOL: self-splicing fitness, log relative to wild type (ln ratio); higher = more splicing; Tetrahymena group I intron in knt gene, E. coli kanamycin selection, DiMSum; sequences stand for … in CUCUCU…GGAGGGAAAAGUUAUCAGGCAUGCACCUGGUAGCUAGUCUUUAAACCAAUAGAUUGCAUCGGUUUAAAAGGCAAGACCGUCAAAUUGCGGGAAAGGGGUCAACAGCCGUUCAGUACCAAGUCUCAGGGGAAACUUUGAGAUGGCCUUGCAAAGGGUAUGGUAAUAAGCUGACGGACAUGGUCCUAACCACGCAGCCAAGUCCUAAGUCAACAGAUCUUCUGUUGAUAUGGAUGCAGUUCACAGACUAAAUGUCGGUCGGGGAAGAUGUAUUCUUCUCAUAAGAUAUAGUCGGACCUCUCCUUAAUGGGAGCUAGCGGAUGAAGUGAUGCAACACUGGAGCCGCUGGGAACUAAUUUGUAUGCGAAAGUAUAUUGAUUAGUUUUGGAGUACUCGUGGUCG;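 further: selection with 25 µg/mL kanamycin versus none on LB agar overnight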
# CONDITION INFO: 30 °C
MEASURED METRIC: self-splicing fitness (ln)
Answer using only a numeral; do not append any unit.

Consider the sequence shown here: GCCGAGCAAUAUUACGUUAG What is its recorded self-splicing fitness (ln)?
-3.58

Quick check: self-splicing fitness (ln) of UACAAGCAAUAUUACGUCCU ?
-1.16

Endpoint output: self-splicing fitness (ln) of AUCUAGCAAUAUUACGGCAC . Value?
-1.5

Dear colleague, I am looking for the recorded self-splicing fitness (ln) of the following sequence: AAGUAGCAAUAUUACGCGGU
-2.47

I have this sequence here, AUCAAGCAAUAUUACGUACU , and I need its recorded self-splicing fitness (ln).
-0.173

# self-splicing fitness (ln) lookup, item GAUAAGCAAUAUUACGUUCC
-3.71

// query self-splicing fitness (ln) value for entry UGCAAGCAAUAUUACGUCCA
-0.254

// self-splicing fitness (ln) lookup, key: CGAGAGCAAUAUUACGUGCA
-3.22

Form field: reported self-splicing fitness (ln) of UCCAAGCAAUAUUACGGUCU
-2.33

----------
# MEASUREMENT PROTOCOL: self-splicing fitness, log relative to wild type (ln ratio); higher = more splicing; Tetrahymena group I intron in knt gene, E. coli kanamycin selection, DiMSum; sequences stand for … in CUCUCU…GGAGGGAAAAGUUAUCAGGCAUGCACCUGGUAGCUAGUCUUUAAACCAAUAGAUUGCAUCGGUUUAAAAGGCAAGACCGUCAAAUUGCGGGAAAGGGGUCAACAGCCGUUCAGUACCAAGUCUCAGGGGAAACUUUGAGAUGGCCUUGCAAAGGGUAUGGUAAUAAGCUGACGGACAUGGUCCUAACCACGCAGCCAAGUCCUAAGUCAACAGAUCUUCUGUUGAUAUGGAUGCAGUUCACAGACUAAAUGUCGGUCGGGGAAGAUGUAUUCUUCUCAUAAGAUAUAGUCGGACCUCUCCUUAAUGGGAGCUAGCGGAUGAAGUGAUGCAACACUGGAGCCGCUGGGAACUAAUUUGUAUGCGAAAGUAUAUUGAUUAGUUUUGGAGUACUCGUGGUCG
# CONDITION INFO: 37 °C
MEASURED METRIC: self-splicing fitness (ln)
Format: numeric value only, no unit, no commentary.

Param item = GCCCAGCAAUAUUACGCCCC ; retrieve measured self-splicing fitness (ln).
-0.245

Tell me the measured self-splicing fitness (ln) of AGUAAGCAAUAUUACGUGAU , please.
-2.33

Tell me the measured self-splicing fitness (ln) of UUUUAGCAAUAUUACGCAGG , please.
-1.03

Name the recorded self-splicing fitness (ln) for GUAGAGCAAUAUUACGGUGU .
-1.23

Fill in the blank: the reported self-splicing fitness (ln) of UAGCAGCAAUAUUACGGUAG is ____.
-0.873

For the sequence UUGAAGCAAUAUUACGAUGG , what self-splicing fitness (ln) is on record?
0.232

For UGGCAGCAAUAUUACGCGUC , what is its reported self-splicing fitness (ln)?
-2.21

Given the sequence CAGAAGCAAUAUUACGGCUU , what is its reported self-splicing fitness (ln)?
-3.66

Data request, read-out self-splicing fitness (ln), for AGGAAGCAAUAUUACGACAC
-1.74

Which self-splicing fitness (ln) value is on record for AAUGAGCAAUAUUACGGCAC ?
-1.27

self-splicing fitness (ln) for CGAAAGCAAUAUUACGUUAC ?
-3.01

Tell me the measured self-splicing fitness (ln) of CUACAGCAAUAUUACGAUGG , please.
-0.971

Fill in the blank: the reported self-splicing fitness (ln) of CAGGAGCAAUAUUACGCGCA is ____.
-1.62

Find the recorded self-splicing fitness (ln) belonging to CAAAAGCAAUAUUACGACGA and report it.
-0.343

Fill in: self-splicing fitness (ln) of UAAAAGCAAUAUUACGGGCC is ___
-2.04

Would you mind telling me what self-splicing fitness (ln) value was observed for UUUAAGCAAUAUUACGCCAG ?
-0.457

Record request: self-splicing fitness (ln) value, item GCCCAGCAAUAUUACGCGUU
0.222

Recorded self-splicing fitness (ln) for UCAAAGCAAUAUUACGCCUU , please?
-2.93

Requested read-out: self-splicing fitness (ln). Entry: AUCUAGCAAUAUUACGUUAG
-2.67

Recorded self-splicing fitness (ln) of UGGGAGCAAUAUUACGUGCG , please.
-0.551

Record request: self-splicing fitness (ln) value, item GGCUAGCAAUAUUACGUGGU
-2.13

// query self-splicing fitness (ln) value for entry AAACAGCAAUAUUACGAAUA
-1.1

# query: self-splicing fitness (ln) of entry UCCGAGCAAUAUUACGUCUA
-3

What does the data say about its self-splicing fitness (ln)? Entry: GGGUAGCAAUAUUACGUAAG
-0.429

State the recorded self-splicing fitness (ln) for this entry: GGCAAGCAAUAUUACGUCGA
-0.561

Fill in: self-splicing fitness (ln) of GUUCAGCAAUAUUACGUGUA is ___
-0.647

Give the measured self-splicing fitness (ln) of GGAGAGCAAUAUUACGGCAA .
-1.59

Returns the measured self-splicing fitness (ln) for the input sequence. Input: AAGAAGCAAUAUUACGCACA
-0.233

Entry under review: AGGGAGCAAUAUUACGAAAU . Reported self-splicing fitness (ln)?
-1.22

So what does the record say about self-splicing fitness (ln) for CCCAAGCAAUAUUACGAUAG ?
-2.54

Quick one: self-splicing fitness (ln) for UAACAGCAAUAUUACGCCUC ?
-2.06

Suppose we examine the sequence GAGUAGCAAUAUUACGGACA ; what self-splicing fitness (ln) value has been reported?
-0.816

Record request: self-splicing fitness (ln) value, item AAGCAGCAAUAUUACGAGCC
-1.2

For GGUAAGCAAUAUUACGUUAA , what is its reported self-splicing fitness (ln)?
-1.37

self-splicing fitness (ln) lookup needed for UUUAAGCAAUAUUACGGAGU , thanks.
-1.18

Reported self-splicing fitness (ln), sequence CACCAGCAAUAUUACGAGUA : ____
-0.515

State the recorded self-splicing fitness (ln) for this entry: GCCAAGCAAUAUUACGGACC
-0.612

Look up self-splicing fitness (ln) for this sequence: ACAAAGCAAUAUUACGUUAG
-2.69

Give its self-splicing fitness (ln) value. Item: UUGAAGCAAUAUUACGUCCU
-0.346

Param item = GUGUAGCAAUAUUACGCGAA ; retrieve measured self-splicing fitness (ln).
-0.555

Any idea what self-splicing fitness (ln) was measured for UGACAGCAAUAUUACGGUGG ?
-0.331

Bench note: what self-splicing fitness (ln) did GUUUAGCAAUAUUACGCGGU show?
-1.95

Could you share which self-splicing fitness (ln) value was measured for ACUAAGCAAUAUUACGAUCG ?
0.89

Given the sequence CAACAGCAAUAUUACGAAUG , what is its reported self-splicing fitness (ln)?
-0.229

Suppose we examine the sequence GUUAAGCAAUAUUACGUGAC ; what self-splicing fitness (ln) value has been reported?
-2.56

What value of self-splicing fitness (ln) has been reported for the following sequence? UGUUAGCAAUAUUACGUCGG
-0.8

Recorded self-splicing fitness (ln) for AUCGAGCAAUAUUACGGGAG , please?
-2.5

# query: self-splicing fitness (ln) of entry CCAAAGCAAUAUUACGAGAG
-1.91

Could you share which self-splicing fitness (ln) value was measured for CUCUAGCAAUAUUACGGUAA ?
-2.14

Look up self-splicing fitness (ln): ACCCAGCAAUAUUACGACAC
-0.292

Please report the recorded self-splicing fitness (ln) for AGGAAGCAAUAUUACGGGUC .
-2.31

Which measured self-splicing fitness (ln) value corresponds to CUGCAGCAAUAUUACGCGCA ?
-2.13

Given the sequence UCAAAGCAAUAUUACGAGCU , what is its reported self-splicing fitness (ln)?
-1.38

self-splicing fitness (ln) for CAUGAGCAAUAUUACGCAUG ?
-1.18

# input sequence: CAUAAGCAAUAUUACGACCG ; wanted: its self-splicing fitness (ln)
0.553

Field request: self-splicing fitness (ln) | item: GAUGAGCAAUAUUACGCGCC
-2.26

Given the sequence GGCCAGCAAUAUUACGGUUU , what is its reported self-splicing fitness (ln)?
-0.401

Reported self-splicing fitness (ln), sequence AGUGAGCAAUAUUACGUUUU : ____
-2.57

Give its self-splicing fitness (ln) value. Item: AUUUAGCAAUAUUACGUGAA
-0.614

Give the measured self-splicing fitness (ln) of AAAAAGCAAUAUUACGAUAA .
-1.1

Which self-splicing fitness (ln) value is on record for UGGGAGCAAUAUUACGGCCU ?
-1.9
